// provenance: the nanobody polyreactivity screen of Harvey et al. (2022)

Assay: yeast display, Sf9 membrane polyspecificity reagent, FACS + sequencing; frameworks hold sequencing errors
QUANTITY NAME: polyreactivity (PSR sort gate)

QVQLVESGGGLVQAGGSLRLSCAASGFTFDYYAMGRDIPAPGKERELVAAISRAGSTNYADSVKGRFTISRDNAKNTVYLQMNSLKPEDTAVYYCNKGYHSWSRLSQFGWSYDYWGQGTQVTVSS    high polyreactivity
QVQLVESGGGLVQAGGSLRLSCAASGSTFDGYAMGWYRQAPGKERELVAAITSSDGSTYYADSVKGRFTISRDNAKNTVYLQMNSLKPEDTAVSDCNAEGYDWEFGYWGQGTQVTVSS    low polyreactivity
QVQLVESGGGLVPAGGSLRLSSAASGRIFVRNAMGWYRQAPGKERELVAAITRTGASTYYADSVKGRFTISRDNEKNTVYLQMNSLKPEDTAVYFFAAVWGWPYWVYRYDYWGQGTQVTVSS    high polyreactivity
QVQLVESGGGLVQAGGSLRLSCAASVSIILDNAMGWYRQAPGKERELVASIDWSGGSTDYADSVKGRFTISRDNAKNTVYLQMNSLKPEDTAVYYCNAERYPYRLRARKLDYWGQGTQVTVSS    low polyreactivity
QVQLEESGGGLVQAGGSLRLSCAASGIISTVYAMGWYRQAPGKERELVAAISCSGGSTYYADSLKGSFTISRDNENNTVYLQMNSLKPEDTAVYYCSKGYQYQGNSYGYWGQGTQVTVSS    low polyreactivity
QVQLVESGAGLVQAGGSLRLSCAASGSTLVTNAMGWYRQAPGKERELVAAITFSGGTTYYADSVKGRFTISRDNAKNTVYLQMNSLKPEDTAVYYCAAEIWLEYVGYDYWGQGTQVTVSS    high polyreactivity
HVQLVESGGGLVQAGASLRLSCAASGRTFGRYAMGWSRQAPGKERELVAAIRSGGSTYYADSVKGRFTISRDNAKNTVYLQMNSLNPEDPAVYYCAADIARHLTGFAYDRLDYCGQGTQVTVSS    low polyreactivity
QVQLVESGGGLVQAGGSLRLSCPAYGSIFEGHGMGWYRQAPGKEREMVAAITFRSGSTYYADSVKWRFTISRDNAKNTVYLQINSLKPDDTAVYYCAADEYYQVSAYDYWGQGTQVTVSS    low polyreactivity
QVQLVESGGGLVQAGGSLRLSCAASGRIFKPYAMGWYRQAPGKERELVASISRRGGSTYYADSVKGRFTISRDNAKNTVYLQMNSLKPEDTAVYYCNASGTYISLGYDYWGQGTQVTVSS    high polyreactivity
QVQLVESGGGLVQAGGSLRLSCAASGSTFVTYAKGWYRQAPGKERELVAAITSGGSTNYADSVKGRFTISRDNAKNTVYLQMNCLKPEDTEVYYCAARYYGAYGKQPRARYGYWGQGTQVTVSS    high polyreactivity
QVQLVESGGGLVQAGGSLRLSCAASGSIFVSYAMGWYRQAPGKERELVAAITSAGTTYYADSVKGRFTISRDNAKNTVYLQMNSLKQEDTAVYYCNTDASFKRTRVSPETEYGYWGQGTQVTVSS    low polyreactivity
QVQLVESGGGLVQAGGSLRLSCAASGMTFFTYSMGWYRQAPGKERELVAAISGSGGSTYYADSVKGRFTISRDNAKNTVYLQMNSLKPEDTAVYYCAKRSWIVYDYWGQGTQVTVSS    low polyreactivity
QVQLVESGGGLVQAGGSLRLSCAASGYIFRRYAMGWYRQAPGKERELVAAISKSGVSTYYADSVKGRFTISRDNAKNTVYLQMNSLKPEDTAVYYCAASSYTWGEDYWGQGTQVTVSS    high polyreactivity
QVQLVESGGRLVQAGGSLRLSCAASVSTFRKYAMGWYRQAPGKEREFVAAITWSTGTTYYADSVKGRFTISRDTAKNTVYLQMNSLKPEDTAVYYCAADSQPPHELYESIEHESWGQGTQVTVSS    low polyreactivity
QVQLVESGGGLDQAGGSLRLSCAASGLILRRYDMGWYRQAPGKERELVAAISGSGGRTYYADSVKGRFTISRDNAKNTVYLQMNSLKPEDTAVYYCAAEYSYYYDQYSYDYWGQGTQVTVSS    high polyreactivity
QVQLVESGGGLVQAGGSLRLSCAASGSIFSWYTMGWYRQAPGKERELVAAISRRGGSTYYADSVKGRFTISRDNAKNTVFLQMNSLKPEDNAVYYCAAAHPATRYDYWGQGTQVTVSS    high polyreactivity
QVQLVESGGGLVQAGGSLRLSCAASGSIFKKYAMGWYRQAPGKERELVAAISSTGGSTKYADSVKGRFTISRDNAKNTVYLQMNSLKPEDTAVYYCAVRYKWPYDYWGQGTQVTVSS    high polyreactivity
QVQLVESGGGLVQAGGNLRLSCAASGFKFTSYAMGCYIQAPGKERELVAAISTSGDRTYYADSVKGRFTISRDNAKNTVYLQMNSLQPEDTAVYYSAVVRPRSVVRYDSWGQGTQVTVSS    high polyreactivity
QVQLVESGGGLVQAGGSLRLSCAASGSTFWVYTMGWYRQAPGKEREFVAAISSGVGSTHYADSVKGRFTLSRDNAKNTVYLNMNSLKPEDTAVYYCAAESYYVYLGWLEYWGQGTQVTVSS    high polyreactivity
QVQLVESGGGLVQAGGSLRLSCAASGSIFDSNAMGRYRQAPGKERELVAAISLSGGSTYYADSVKGRFTISRDNAKNTVYLQMNSLKPVDTAVYYCAKDGWYEYYWGQGTQVTVSS    low polyreactivity
QVQLVESGGGLVQAGGSLRLSCAASGSTLVTNAMGWYRQAPGKERELVAAITFSGGTTYYADSVKGRFTISRDNAKNTVYLQMNSLKPEDTAVYYCAAEIWLEYVGYDYWGQGTQVTVSS    high polyreactivity
